# System: Citrobacter freundii
# Assay method text: Antimicrobial activity against Citrobacter freundii ATCC 8090 after18 to 20 hrs by broth dilution method
# Assay type: functional
Endpoint label: MIC (µg/mL)

Cc1ccc(Nc2nn3c(-c4ccc(S(=O)(=O)c5ccccc5)cc4)nnc3s2)cc1 :: 1020
COc1ccc(Nc2nn3c(-c4ccc(S(=O)(=O)c5ccccc5)cc4)nnc3s2)cc1 :: 256
O=S(=O)(c1ccc(Br)cc1)c1ccc(-c2nnc3sc(O)nn23)cc1 :: 256
O=S(=O)(c1ccccc1)c1ccc(-c2nnc3sc(-c4cc(O)c(O)c(O)c4)nn23)cc1 :: 1020
O=S(=O)(c1ccccc1)c1ccc(-c2nnc3sc(Nc4ccc(Br)cc4)nn23)cc1 :: 1020
Nc1ccc(-c2nn3c(-c4ccc(S(=O)(=O)c5ccc(Br)cc5)cc4)nnc3s2)cc1 :: 512

---

# Tested on: Candida albicans
# Assay method text: Antimicrobial activity against Candida albicans ATCC 90028 after 48 hrs by broth dilution method
# Format: functional
# Experimental setup: ATCC 90028, 48 h
Endpoint label: MIC (µg/mL)

O=S(=O)(c1ccccc1)c1ccc(-c2nnc3sc(Nc4ccc(Br)cc4)nn23)cc1 :: 1020
O=S(=O)(c1ccccc1)c1ccc(-c2nnc3sc(-c4cc(O)c(O)c(O)c4)nn23)cc1 :: 512
O=S(=O)(c1ccc(Br)cc1)c1ccc(-c2nnc3sc(O)nn23)cc1 :: 256
O=S(=O)(c1ccccc1)c1ccc(-c2nnc3sc(O)nn23)cc1 :: 256
O=S(=O)(c1ccc(Br)cc1)c1ccc(-c2nnc3sc(-c4cc(O)c(O)c(O)c4)nn23)cc1 :: 512

---

# System: Staphylococcus aureus
# Assay method text: Antimicrobial activity against Staphylococcus aureus ATCC 25923 after18 to 20 hrs by broth dilution method
# Type: functional
Simple rule here: MIC less than 300 µg/mL is label 1, otherwise label 0.

O=S(=O)(c1ccc(Br)cc1)c1ccc(-c2nnc3sc(-c4cc(O)c(O)c(O)c4)nn23)cc1 :: label 1
O=S(=O)(c1ccccc1)c1ccc(-c2nnc3sc(Nc4ccc(Br)cc4)nn23)cc1 :: label 0
O=S(=O)(c1ccc(Br)cc1)c1ccc(-c2nnc3sc(-c4ccc(Cl)c(Br)c4)nn23)cc1 :: label 1
O=S(=O)(c1ccc(Br)cc1)c1ccc(-c2nnc3sc(-c4ccc(Cl)cc4)nn23)cc1 :: label 1
O=S(=O)(c1ccccc1)c1ccc(-c2nnc3sc(-c4ccc(Br)cc4)nn23)cc1 :: label 0
O=S(=O)(c1ccc(Br)cc1)c1ccc(-c2nnc3sc(-c4ccc(Br)cc4)nn23)cc1 :: label 1
COc1ccc(-c2nn3c(-c4ccc(S(=O)(=O)c5ccccc5)cc4)nnc3s2)cc1 :: label 1
NCc1ccc(-c2nn3c(-c4ccc(S(=O)(=O)c5ccc(Br)cc5)cc4)nnc3s2)cc1 :: label 0
